Target: Histone-lysine N-methyltransferase EHMT2 (Homo sapiens) (UniProt Q96KQ7)
Sequence (Q96KQ7 913-1193 limits assumed): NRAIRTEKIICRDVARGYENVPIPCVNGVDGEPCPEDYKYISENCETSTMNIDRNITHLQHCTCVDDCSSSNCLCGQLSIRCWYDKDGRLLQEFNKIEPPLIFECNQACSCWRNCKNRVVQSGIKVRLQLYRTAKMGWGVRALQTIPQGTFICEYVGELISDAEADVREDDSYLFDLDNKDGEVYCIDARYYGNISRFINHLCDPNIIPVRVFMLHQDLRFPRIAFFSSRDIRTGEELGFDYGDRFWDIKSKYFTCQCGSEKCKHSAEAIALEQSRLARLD
Assay: qHTS Assay for Inhibitors of Histone Lysine Methyltransferase G9a; further: nearly all actives have a fitted effect of over 75% in size; further: potency means the concentration at half of the fitted maximal effect
Settings: G9a H3K9 monomethylation, AlphaScreen, 2 h; series mostly up to 59 µM
Description: Methylated lysines, on the N-terminal tails of histone proteins serve as epigenetic markers to recruit factors that can then modify local chromatin structure to lead to functional consequences. […] Methylation of biotinylated-histone peptide is measured through specific antibody-based detection, in conjunction with streptavidin-coated donor and anti-IgG antibody-coated acceptor beads. […]
Out of some 350,000 compounds screened, about 31,000 (8.9%) were called active. Roughly 15% stayed inconclusive and do not appear here. What follows is part of a selection rich in actives, with near analogues and random picks from the rest.
OBSERVABLE: Potency

CC(C)N(C(=O)Cn1c(SCC(=O)N2CCN(c3ccccc3)CC2)nc2ccccc21)C(C)C : inactive
O=C(NCc1ccccc1)C1CCN(S(=O)(=O)c2ccc3[nH]c(=O)ccc3c2)CC1 : inactive
O=C(OCC(=O)N1CCCC1=O)c1cc(S(=O)(=O)N2CCOCC2)ccc1Cl : inactive
O=C(CCNC(=O)c1ccc(Br)cc1)NCCCc1ccccc1 : inactive
Cc1cccc(OCC(O)Cn2c(N3CCCCC3)nc3c2c(=O)[nH]c(=O)n3C)c1 (centres undefined) : inactive

Record request: Potency value, item CCOc1ccc(CCNC(=O)c2cc3c(=O)n(C)c4ccccc4c3n2C)cc1
inactive

Repeat with CCOC(=O)[C@H]1[C@H]2COc3cc(OC)ccc3[C@@H]2N2C(=O)N(c3ccc(Br)cc3)C(=O)[C@@]12C
inactive

Further, for Cn1c(C(=O)NCCCN2CCN(c3cccc(Cl)c3)CC2)cc2c(=O)n(C)c3ccccc3c21 ?
7.94 µM (active)

Quick one: Cc1cccc(OCCSc2nc3ccccc3n2CC(=O)N2CCCCC2)c1C
12.6 µM (active)

All figures here come from PubChem BioAssay AID504332.
